Test system: Plasmodium falciparum (chloroquine-resistant K1 strain)
assay.overview: In vitro antimalarial activity, K1 strain
Type: cell-based
measurement.setup: Plasmodium falciparum, K1, chloroquine-resistant strain, in vitro
Record form. Attribute: IC50. Fill in for each entry.
Please respond with the number in µg/mL and leave the unit unwritten.

Query: Look up IC50 for this compound: C[C@@H]1CC[C@H]2[C@@H](C)C(=O)O[C@@H]3O[C@@]4(C)CC[C@@H]1[C@]32OO4 [Artemisinin, reference compound]
Response: 0.006

Query: Another compound to look at: C/C=C1/CNCC[C@@H]1[C@@](C)(O)c1cc2ccccc2[nH]1 (racemic) [(±)-(15S,16R)-37]
Response: 8.98

Query: Here is the next compound: C/C=C1/C(=O)O[C@H](C)[C@H]1CCN=[N+]=[N-] [(−)-(15S,16R)-39]
Response: 9.38

Query: Consider next the compound C/C=C(/CO)[C@H](CCN=[N+]=[N-])[C@@](C)(O)c1cc2ccccc2[nH]1 [(−)-(15S,16R)-33] in the same way.
Response: 7.58

Query: Next up: C/C=C(/COc1ncccc1[N+](=O)[O-])[C@H](CCN=[N+]=[N-])[C@@](C)(O)c1cc2ccccc2[nH]1 [(−)-(15S,16R)-34]
Response: 8.04
